# PROTOCOL: NCI Yeast Anticancer Drug Screen. Data for the mlh1 rad18 strain (AID 175)
# STATED_CONDITIONS: S. cerevisiae mlh1 rad18 strain growth inhibition; at 50.0 µM
This is part of a sample that, as a whole, favours compounds with a hit. Of some 79,000 tested, about 15% had one in any assay. The source made the active and inactive calls. Rule as the data show it: active = growth inhibition above about 70%; inactive = the rest.
Classes to choose from: active, inactive

COMPOUND	LABEL
COc1ccc(N)c2c1C(=O)c1ccccc1C2=O	active

Asked: Give the logged outcome of this assay for the following compound: COc1ccc(S(=O)(=O)N/N=C\c2cc([N+](=O)[O-])cc(I)c2O)c(OC)c1OC
Given back: active

Asked: Give the logged outcome of this assay for the following compound: O=C1C(Cl)=C(Cl)C(Cl)(Cl)C(Cl)C1(Cl)Cl (configuration not stated)
Given back: active

Asked: Give the logged outcome of this assay for the following compound: CC[C@@]1(OC(=O)CN(C)C)C(=O)OCc2c1cc1n(c2=O)Cc2cc3c(N)cccc3nc2-1
Given back: active

Asked: Give the logged outcome of this assay for the following compound: Cn1c2nc3ccccc3c-2nc2ccccc21
Given back: active

Asked: Give the logged outcome of this assay for the following compound: CCCCCC#CCOC(=O)C(=[N+]=[N-])P(=O)(c1ccccc1)c1ccccc1
Given back: active

Asked: Give the logged outcome of this assay for the following compound: On1cnc(=S)c2[nH]cnc21
Given back: inactive
